B1: HDV Ribozyme (parent)
chain: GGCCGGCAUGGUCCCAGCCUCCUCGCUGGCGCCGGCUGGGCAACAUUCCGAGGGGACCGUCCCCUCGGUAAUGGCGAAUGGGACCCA

Variants of: B1
Test: self-cleavage, relative activity (ratio to wild type); higher = more cleavage; co-transcriptional
Can you tell me self-cleavage for the items I'm about to list?
One number for each entry.

In the examples that follow, each entry is paired with its recorded self-cleavage.
C18G G74C; 0.142
G50A G53U; 0.727
G39A C85G; 0.523
A83G C86A; 0.941
G31C A56C; 0.325

Could you report self-cleavage for every entry in the following list?
1. G53U U65G
2. U23G G53U
3. A43C A87G
4. C7G C32G

a:
[0.831, 0.866, 0.306, 0.115]

Could you report self-cleavage for every entry in the following list?
1. G67U G76C
2. C41U G80A

a:
1.1
0.283

Could you report self-cleavage for every entry in the following list?
1. G73U C84A
2. G73A C85U
3. G1A C61U
4. G59A C75G
5. G50C C63A
6. C7U C66A
7. C44U A45C
8. C57A C58A

a:
[0.158, 0.73, 0.26, 0.177, 0.305, 0.776, 0.739, 1.07]
